# ASSAY REMARKS: chemical genetic growth profiling, strain panel (AID 1159580);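 further: tested at 20 µM; growth read once vehicle control cultures reached saturation at 30 °C; 1 = growth at the plate median or of vehicle wells; lower values mean less growth of the strain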
# APPLIED CONDITIONS: S. cerevisiae deletion strains, growth OD, locus YGR052W, strain FMP48
Screen size: about 5,500 compounds; about 2,000 (36%) were called active. Not shown: some 18% with an inconclusive outcome. No stated cut-off is given here; in the data, active means normalized growth mostly below about 0.91 (no sharp cut-off); inconclusive means no clear call, values can overlap the other calls; inactive means mostly above about 0.92. This is one part of the list.
Please answer using one outcome listed in 1 (active), 0 (inactive)

Worked examples follow.
1. O=C(NOC(=O)c1ccccc1)c1ccccc1 1
2. Cc1c(C)c(C)c(C(=O)c2ccc(N=Cc3cc(Cl)cc(Cl)c3O)cc2)c(C)c1C 0
3. Cc1nn(-c2cccc(Cl)c2)c2oc(=O)cc(C(F)(F)F)c12 1
4. CC(=O)c1ccc(Cl)c(N=Cc2cc(Cl)cc(Cl)c2O)c1 1
5. N/C(Cc1cccc2ccccc12)=N/OC(=O)c1ccc(Cl)cc1 0

Status in this test for "N#CSCC(=O)c1ccccc1" ?
1

Consider next the compound "CC(=O)c1ccc(Cl)c(N=Cc2cc(Br)cc(Br)c2O)c1" in the same way.
1

###

# ASSAY REMARKS: chemical genetic growth profiling, strain panel (AID 1159580);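 further: tested at 20 µM; growth read once vehicle control cultures reached saturation at 30 °C; 1 = growth at the plate median or of vehicle wells; lower values mean less growth of the strain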
# APPLIED CONDITIONS: S. cerevisiae deletion strains, growth OD, locus YHR013C, strain ard1
The campaign covered roughly 5,500 compounds. About 2,000 (36%) were called active. Not shown: some 18% with an inconclusive outcome. Rule as the data show it: active = normalized growth mostly below about 0.91 (no sharp cut-off); inconclusive = no clear call, values can overlap the other calls; inactive = mostly above about 0.92. The list shows a part of the results.
Choose one outcome from this list and give only that: Yes = active, No = inactive

Field: example entries. Status: answers known.
COMPOUND	LABEL VALUE
OC[C@H]1O[C@@H](O[C@@H]2[C@@H](CO)O[C@](O)(CO)[C@H]2O)[C@H](O)[C@@H](O)[C@H]1O	No
CS(=O)(=O)Nc1ccc([N+](=O)[O-])cc1Oc1ccccc1	No
NC(=O)NC(=O)Cc1ccccc1	No
CC(C)CCCC(C)C1CCC2C3CC(=O)[C@H]4C[C@@H](O)CC[C@]4(C)C3CC[C@]12C (stereo partly specified)	No
Cc1cc(=O)oc2cc(O)c(O)cc12	No
O=C(CC(=O)c1ccccc1)c1ccccc1	Yes
O=C(OCc1ccccc1)c1ccccc1	Yes
NCC(=O)c1ccccc1	No
NCC(N)C(=O)c1ccccc1 (stereo unspecified)	No
COc1cc(C/C=C/c2ccccc2)c(OC)cc1O	No

State the result this test recorded for CCC(C)C(=O)OC1[C@@H]2CC3=C4CC(=O)O[C@@H](c5ccoc5)[C@]4(C)CCC3[C@@](C)(C2=O)[C@@H](CC(=O)OC)C1(C)C (stereo partly specified) .
No

###

# ASSAY REMARKS: chemical genetic growth profiling, strain panel (AID 1159580);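 further: tested at 20 µM; growth read once vehicle control cultures reached saturation at 30 °C; 1 = growth at the plate median or of vehicle wells; lower values mean less growth of the strain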
# APPLIED CONDITIONS: S. cerevisiae deletion strains, growth OD, locus YLR357W, strain rsc2, hits give low values
About 2,000 (36%) of roughly 5,500 compounds were called active. Roughly 18% stayed inconclusive and do not appear here. Some of the results follow.
Reported normalized growth values for a set of compounds
I only need the number, thanks.

Solved entries:
1) NC(=O)c1cccnc1 0.979
2) NS(=O)(=O)c1cc2c(cc1Cl)NC(CSCc1ccccc1)=NS2(=O)=O 1.02
3) OC[C@H]1O[C@@H](O[C@H]2[C@H](O)[C@@H](O)[C@@H](O)O[C@@H]2CO)[C@H](O)[C@@H](O)[C@@H]1O 0.975
4) OC[C@H]1O[C@@H](O[C@@H]2[C@@H](CO)O[C@](O)(CO)[C@H]2O)[C@H](O)[C@@H](O)[C@H]1O 0.995
5) Nc1ccc(S(=O)(=O)NC(=O)c2ccccc2)cc1 0.977
6) O=C(O)c1cccnc1 0.991
7) O=C(NCO)c1cccnc1 0.974
8) OC[C@H]1O[C@@](CO)(O[C@@H]2O[C@H](CO)[C@@H](O)[C@H](O)[C@H]2O)[C@@H](O[C@@H]2O[C@H](CO)[C@@H](O)[C@H](O)[C@H]2O)[C@@H]1O 0.991

GET /values?readout=normalized growth&item= "Oc1cccc(O)c1"
0.977
